So I've got a bunch of molecules here, and I need their viability, T/C values.
# System: K86415-001-R-J1-PDC complex spheroids, viability
# protocol.description: Anticancer human tumor K86415-001-R-J1-PDC patient-derived lung adenocarcinoma cell line growth inhibition [RAS]
# test.settings: second compound 10 µM; first compound 3.16 µM; stronger effect = lower value
Write down the numeric answer in % and omit the unit.

Reported viability, T/C ( CC(Nc1ccc2c(c1)OCCn1cc(N3C(=O)OCC3C(F)F)nc1-2)C(N)=O (stereo not given) + C#Cc1c(F)ccc2cc(O)cc(-c3ncc4c(N5CC6CCC(C5)N6)nc(OCC56CCCN5CC(F)C6)nc4c3F)c12 ) = 3.76

Noted for CC(=O)OC12COC1CC(O)C1(C)C(=O)C(O)C3=C(C)C(OC(=O)C(O)C(NC(=O)OC(C)(C)C)c4ccccc4)CC(O)(C(OC(=O)c4ccccc4)C21)C3(C)C (stereo not given) + C#Cc1c(F)ccc2cc(O)cc(-c3ncc4c(N5CC6CCC(C5)N6)nc(OCC56CCCN5CC(F)C6)nc4c3F)c12 : its viability, T/C reads 18.2

Lab book: viability, T/C of C[C@@H](NC(=O)c1ncnc(N)c1Cl)c1ncc(C(=O)Nc2cc(C(F)(F)F)c(Cl)cn2)s1 + C#Cc1c(F)ccc2cc(O)cc(-c3ncc4c(N5CC6CCC(C5)N6)nc(OCC56CCCN5CC(F)C6)nc4c3F)c12 noted as 19.6

# viability, T/C of CC1(O)CCCC1n1c(=O)c(C(F)F)cc2cnc(NC3CCN(S(C)(=O)=O)CC3)nc21 (stereo not given) + C#Cc1c(F)ccc2cc(O)cc(-c3ncc4c(N5CC6CCC(C5)N6)nc(OCC56CCCN5CC(F)C6)nc4c3F)c12 = 30.2

Per the record, CC(C)NCC(C(=O)N1CCN(c2ncnc3c2C(C)CC3O)CC1)c1ccc(Cl)cc1 (stereo not given) + C#Cc1c(F)ccc2cc(O)cc(-c3ncc4c(N5CC6CCC(C5)N6)nc(OCC56CCCN5CC(F)C6)nc4c3F)c12 has viability, T/C of 16.9

---

Field: viability, T/C. Provide a value for each of the compounds that follow.
# System: K86415-001-R-J1-PDC complex spheroids, viability
# protocol.description: Anticancer human tumor K86415-001-R-J1-PDC cell line growth inhibition [RAS];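 note: spheroids exposed to agents for seven days before readout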
# test.settings: second compound 0.0316 µM; first compound 0.1 µM; stronger effect = lower value
The answer is to be given in %; state only the numeric part.

Reported K86415-001-R-J1-PDC complex spheroids, viability viability, T/C for item O=C(c1ccc(F)c(F)c1Nc1ccc(I)cc1F)N1CC(O)([C@@H]2CCCCN2)C1 + C=CC(=O)N1CCN(c2nc(OCC3CCCN3C)nc3c(F)c(-c4nc(N)cc(C)c4C(F)(F)F)c(Cl)cc23)C(C)C1 was 5.71

I looked up CC(=O)OC12COC1CC(O)C1(C)C(=O)C(O)C3=C(C)C(OC(=O)C(O)C(NC(=O)OC(C)(C)C)c4ccccc4)CC(O)(C(OC(=O)c4ccccc4)C21)C3(C)C (configuration not stated) + C#Cc1c(F)ccc2cc(O)cc(-c3ncc4c(N5CC6CCC(C5)N6)nc(OCC56CCCN5CC(F)C6)nc4c3F)c12 and its viability, T/C for K86415-001-R-J1-PDC complex spheroids, viability was 30.7
